# Tested on: E. coli pLC1021 (luc-trpAt trans-translation reporter)
# Construct: pLC1021 luc-trpAt reporter strain
# Design: species or system Escherichia coli pLC1021; luc-trpAt non-stop luciferase reporter; luminescence rises when trans-translation is inhibited; normalized to KKL-35 and DMSO
# Experimental conditions: reporter signal, KKL-35 = 100%; rise means trans-translation inhibition; 2 h, 20 µM
In all, about 1,600 compounds went through this assay and about 20 (1%) showed an effect of 50% or more. The sample holds strong results, similar compounds and a random draw of the others, so the mix is not that of the screen.
% activation of 4% or higher: t. Under 4%: f.

• CN(C)S(=O)(=O)c1ccc(C(=O)Nc2nnc(-c3ccc(Cl)s3)o2)cc1 [KKL-1747] = f
• O=C(Oc1c(Cl)cc(Cl)c2cccnc12)c1ccc([N+](=O)[O-])cc1 [KKL-0754] = t
• Cc1cc([N+](=O)[O-])ccc1NC(=O)CN1C2CCC1CC(NC(=O)NC13CC4CC(CC(C4)C1)C3)C2 (centres unmarked) [KKL-1619] = f
• COc1cccc(-c2cc(CC3(O)CCN(Cc4[nH]c5ccc(C)cc5c4C)CC3)on2)c1 [KKL-0315] = f
• Cc1ccc2cc3c(nc2c1C)OC(=O)N(C1CCCC1)C3 [KKL-0690] = f
• COc1cccc(O)c1CN1CCC(C(=O)Nc2ccc(-c3cccc(C)c3)cc2)CC1 [KKL-0508] = f
• O=C(Oc1c(Cl)cc(Cl)c2cccnc12)c1ccccc1[N+](=O)[O-] [KKL-1418] = t
• N#Cc1cccc(-c2ccc(NCC3CCC(CN(C(=O)O)c4cccnn4)CC3)nc2)c1 (centres unmarked) [KKL-1855] = f
• CSc1ccc(-c2nnc(NC(=O)c3ccc(Cl)s3)o2)cc1 [KKL-1706] = t
• O=C(Nc1ccc(Cl)cc1C(F)(F)F)c1ccc([N+](=O)[O-])o1 [KKL-0712] = f
• COc1ccc(C(=O)Oc2cccc3cccnc23)cc1[N+](=O)[O-] [KKL-1648] = f
• Oc1c(CN2CCc3ccccc3C2)cc(Cl)c2cccnc12 [KKL-0391] = t
• COc1cc2cc(-c3nc4ccccc4[nH]3)c(N)nc2cc1OC [KKL-0395] = t
• CNc1nc(SCC(=O)N(C)Cc2ccc(Cl)s2)nc2ccccc12 [KKL-1768] = f
• COc1ccc(C(C)(C)C)cc1N=C(S)Nc1ccc(Cl)c(Cl)c1 [KKL-1535] = f
• CC(C)c1noc(N2CCC(C(C)Oc3cnc(-c4ccc(S(C)(=O)=O)c(F)c4)cn3)CC2)n1 (centres unmarked) [KKL-1810] = f

* * *

# Tested on: E. coli pLC1021 (luc-trpAt trans-translation reporter)
# Construct: pLC1021 luc-trpAt reporter strain
# Design: species or system Escherichia coli pLC1021; luc-trpAt non-stop luciferase reporter; luminescence rises when trans-translation is inhibited; normalized to KKL-35 and DMSO
# Experimental conditions: reporter signal, KKL-35 = 100%; rise means trans-translation inhibition; 2 h, 20 µM
Screen size: about 1,600 compounds; about 20 (1%) showed an effect of 50% or more. What follows is part of a selection rich in strong results, with near analogues and random picks from the rest.
Test readout: % activation (%)

• O=C(c1cnn(C(=O)c2ccco2)c1)c1cc(F)ccc1O = 3
• CCC(Sc1nc2ccccc2o1)C(=O)Nc1nnc(C)s1 (stereo not drawn) = 2
• CCCN=C1C(=O)c2ccccc2C(O)=C1N(C(C)=O)c1cccc(F)c1 = 0
• OC(CN1CCC(O)(c2ccc(F)cc2)CC1)c1ccc(-c2ccccc2)cc1 (stereo not drawn) = 0
• O=C(CCCSc1ccccc1)Nc1nc(-c2ccccn2)cs1 = 1
• NC1CCc2nc(-c3cccnc3)nc(Nc3cccc(C(F)(F)F)c3)c2C1 (stereo not drawn) = 124
• O=C(/C=C/c1cccc(C(F)(F)F)c1)Nc1cccc(C(F)(F)F)c1 = 0
• O=C(Nc1ccc(Oc2cccnc2)cc1)C1Oc2ccccc2O1 = 0
• CC(C)(C)C(=O)CC1(O)Oc2ccccc2N=C1C=C(O)C(C)(C)C (stereo not drawn) = 6

* * *

Quick reference for % activation among some compounds
# System: E. coli pLC1021 (luc-trpAt trans-translation reporter)
# Construct: pLC1021 luc-trpAt reporter strain
# Parameters: species or system Escherichia coli pLC1021; luc-trpAt non-stop luciferase reporter; luminescence rises when trans-translation is inhibited; normalized to KKL-35 and DMSO
# Experimental conditions: reporter signal, KKL-35 = 100%; rise means trans-translation inhibition; 2 h, 20 µM
About 20 (1%) of roughly 1,600 compounds showed an effect of 50% or more. The sample as a whole holds a higher share of strong results than the screen did.
Test readout: % activation (%)

- CN(CCn1ccnc1)Cc1cn(Cc2ccccc2)nc1-c1cc2ccccc2o1: 0
- CCC(C)c1ccc(O)c(NC(=S)NC(=O)c2cncc(Br)c2)c1 (centres unmarked): 3
- CSc1ncc(C(=O)NC2(c3ccccc3)CCCC2)cn1: 0
- CCOC(=O)COc1ccc(S(=O)(=O)Nc2c(C)cccc2CC)cc1: 0
- CCCc1ccc2oc(C(=O)NCCc3ccc(O)cc3)c(C)c2c1: 2
- CC(=O)Nc1ccc2cccc(O)c2n1: 55
- Nc1nc(N)c2c(Sc3ccc4ccccc4c3)cccc2n1: 0
- Cc1ccc(-n2cc(CNC(C)c3csc(C)n3)c(-c3cccc(C)c3)n2)cc1 (centres unmarked): 0
- CCC(OC(C)=O)c1ccc(OC(C)=O)c(OC)c1 (centres unmarked): 7
- Cc1nc(-c2ccccc2Br)cc([C@H]2CN3CC[C@H]2C[C@@H]3CNC(=O)c2ccc(C(C)(C)C)cc2)n1: 0
- CCc1cc(C(=O)OC)c(N=C(S)NCc2ccc(Cl)c(Cl)c2)s1: 0
- CC(C)c1ccc(OCC(=O)NNC(=S)NC(=O)c2ccco2)c(Br)c1: 24
- CCN(CC)c1ccc(NC(S)=NCCc2ccc(OC)c(OC)c2)cc1: 0
- O=C(C=Cc1cccs1)N1CCN(Cc2ccc(Br)s2)CC1: 0
- CCCCc1ccc(C(=O)Nc2nccc3ccccc23)nc1: 50
- Cc1ccc(-n2cc(CNCCCn3ccnc3)c(-c3cccc(C)c3)n2)cc1: 0
- O=C(Nc1ccn(Cc2ccc(Cl)cc2)n1)c1ccc2c(c1)OCO2: 0
- O=C(C=Cc1ccco1)N1CCN(Cc2ccc3c(c2)OCO3)CC1: 0
- Cc1nc(C2CCNCC2)ncc1-c1nc(N2CCCCCC2)ncc1-c1ccc(F)cc1: 0
- COc1ccc(-c2cc(=O)c3cc(OCC(=O)OC(C)C)ccc3o2)cc1: 2
- O=C(Nc1ccc(F)cc1)NC1CCCCCCC1: 0
- CCOc1ccc2nc(NC(=O)c3ccccn3)sc2c1: 0
- CC12CC3CC(C)(C1)CC(CNCc1ccccc1O)(C3)C2: 3
- Cc1ccccc1OCCCON1C(=N)N=C(N)NC1(C)C: 11
- Cc1nc2ccccn2c1C(=O)Nc1ccc(C(C)(C)C)cc1: 0
- CCOC(=O)CSc1nc(C#N)c(SCC(=O)OCC)s1: 12

Reference source: paper PMC12548414
